Taken from patent US8969375B2.

# Study Target: CDK9/Cyclin T1 (Homo sapiens)
# Sequence (P50750 whole entry): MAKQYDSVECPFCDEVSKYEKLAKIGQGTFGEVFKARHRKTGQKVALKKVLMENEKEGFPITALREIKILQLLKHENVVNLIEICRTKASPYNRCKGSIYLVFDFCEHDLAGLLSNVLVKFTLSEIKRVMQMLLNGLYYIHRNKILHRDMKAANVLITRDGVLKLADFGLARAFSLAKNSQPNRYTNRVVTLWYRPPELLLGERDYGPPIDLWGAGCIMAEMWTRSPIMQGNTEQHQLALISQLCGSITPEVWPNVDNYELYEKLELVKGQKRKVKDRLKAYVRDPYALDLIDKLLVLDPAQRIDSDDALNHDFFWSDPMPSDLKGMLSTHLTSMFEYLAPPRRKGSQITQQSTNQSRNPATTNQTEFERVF
# Sequence (O60563 whole entry partner): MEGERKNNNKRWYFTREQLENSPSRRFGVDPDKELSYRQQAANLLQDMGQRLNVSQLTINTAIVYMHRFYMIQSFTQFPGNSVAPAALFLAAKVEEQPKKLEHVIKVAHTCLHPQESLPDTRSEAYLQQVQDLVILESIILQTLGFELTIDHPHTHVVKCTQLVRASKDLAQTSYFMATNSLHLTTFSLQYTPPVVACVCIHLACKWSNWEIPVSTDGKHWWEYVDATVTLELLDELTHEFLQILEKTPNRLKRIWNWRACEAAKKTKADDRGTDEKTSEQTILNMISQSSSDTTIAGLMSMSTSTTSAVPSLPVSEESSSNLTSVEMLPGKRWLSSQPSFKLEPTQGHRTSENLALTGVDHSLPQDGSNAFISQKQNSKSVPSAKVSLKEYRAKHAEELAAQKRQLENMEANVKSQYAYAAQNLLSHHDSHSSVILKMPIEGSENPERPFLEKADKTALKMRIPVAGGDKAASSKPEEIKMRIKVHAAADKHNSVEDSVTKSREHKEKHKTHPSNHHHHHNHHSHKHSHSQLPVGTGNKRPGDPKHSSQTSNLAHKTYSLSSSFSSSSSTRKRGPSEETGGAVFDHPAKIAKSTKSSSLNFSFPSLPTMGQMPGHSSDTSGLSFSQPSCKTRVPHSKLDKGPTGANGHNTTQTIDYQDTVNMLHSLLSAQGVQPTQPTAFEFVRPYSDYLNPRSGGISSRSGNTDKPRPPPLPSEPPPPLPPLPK
# Assay Text: CDK9 enzyme activity, LANCE ULight TR-FRET kinase assay
# Details: 1000 μM ATP, 4 nM CDK9/Cyclin T1, 30 minutes
pIC50: −log10 of the molar value.
Metric Name: pIC50

In [3]: df
Out[3]:
                                    compound  reported
 0  c1cc(-c2ccc3ncn(CC4CCOCC4)c3n2)c2cc(C3CCNCC3)[nH]c2n1      7.16
 1  OCC(O)CN1CCC(c2cc3c(-c4ccc5ncn(Cc6cncc(F)c6)c5c4)ccnc3[nH]2)CC1 (stereo not shown)      7.18
 2  CS(=O)(=O)N1CCC(c2cc3c(-c4cnc5ccn(Cc6cncc(F)c6)c5c4)ccnc3[nH]2)CC1      7.46
 3  Fc1cncc(Cn2ccc3ccc(-c4ccnc5[nH]c(C6CCNCC6)cc45)nc32)c1      7.62
 4  Fc1cc2ncn(CC3CCOCC3)c2cc1-c1ccnc2[nH]c(C3CCNCC3)cc12      6.92
 5  CS(=O)(=O)N1CCC(c2cc3c(-c4cnc5ccn(Cc6cccc(F)c6)c5c4)ccnc3[nH]2)CC1      7.77
 6  CC(=O)Nc1ccc(CN2CC=C(c3cc4c(-c5ccc6ncn(Cc7cccc(F)c7)c6c5)ccnc4[nH]3)CC2)cc1      7.37
 7  N#Cc1cn(Cc2cccc(F)c2)c2cc(-c3ccnc4[nH]c(C5CCNCC5)cc34)ccc12      7.74
 8  Fc1cncc(Cn2ccc3ncc(-c4ccnc5[nH]c(C6=CCNCC6)cc45)cc32)c1      7.77
 9  CS(=O)(=O)N1CCC(c2cc3c(-c4ccc5ccn(Cc6cncc(F)c6)c5n4)ccnc3[nH]2)CC1      8.10
10  CS(=O)(=O)N1CCC(c2cc3c(-c4ccc5ncn(Cc6cccc(F)c6)c5c4)ccnc3[nH]2)CC1      7.62
11  CS(=O)(=O)N1CCC(c2cc3c(-c4cnc5ccn(CC6CCOCC6)c5c4)ccnc3[nH]2)CC1      6.85
12  c1cc(-c2ccc3ccn(CC4CCOCC4)c3n2)c2cc(C3CCNCC3)[nH]c2n1      7.36
13  Fc1cccc(CCn2nnc3ccc(-c4ccnc5[nH]c(C6CCNCC6)cc45)cc32)c1      7.29
14  CNC(=O)N1CC=C(c2cc3c(-c4ccc5ncn(Cc6cccc(F)c6)c5c4)ccnc3[nH]2)CC1      7.46
15  c1cc(-c2ccc3ncn(CC4CCOCC4)c3c2)c2cc(C3CCNCC3)[nH]c2n1      7.40
